The origin of these recorded values is ChEMBL document CHEMBL3763051.

# study-system: UniProt:O08967
# experiment-description: Antagonist activity at mouse GRP1-PH domain (1 to 127 residues) assessed as reduction in PI(3,4,5)P3/GRP1-PH interaction after 30 mins by competitive SPR analysis
A collection of compounds and their measured IC50

{"columns": ["smiles-text", "IC50 [µM]"],
 "data": [
  ["N=C(N/C(=N/O)c1nonc1N)c1ccccc1N", 16.6],
  ["N=C(N/C(=N/O)c1nonc1N)N1CCCN=C1N", 11.5],
  ["N=C(N)NC(=N)N/C(=N/O)c1nonc1N", 24.9],
  ["N=C(N/C(=N/O)c1nonc1N)c1ccccc1", 11.5]
]}

====

# study-system: Cytohesin-3 (Mus musculus) (UniProt O08967)
# Sequence (whole entry): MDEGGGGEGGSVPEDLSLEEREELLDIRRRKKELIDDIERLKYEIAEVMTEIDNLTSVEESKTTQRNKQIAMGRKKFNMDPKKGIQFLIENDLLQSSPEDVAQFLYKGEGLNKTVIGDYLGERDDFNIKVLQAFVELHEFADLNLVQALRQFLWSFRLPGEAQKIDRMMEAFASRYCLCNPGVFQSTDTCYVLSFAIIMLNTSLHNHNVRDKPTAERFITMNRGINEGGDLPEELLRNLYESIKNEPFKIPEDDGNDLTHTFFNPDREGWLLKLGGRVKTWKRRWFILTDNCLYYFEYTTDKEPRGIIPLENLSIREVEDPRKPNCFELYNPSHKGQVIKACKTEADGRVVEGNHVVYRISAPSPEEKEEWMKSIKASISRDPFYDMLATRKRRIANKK
# experiment-description: Antagonist activity at mouse GRP1-PH domain (1 to 127 residues) assessed as reduction in PI(3,4,5)P3/GRP1-PH interaction at 50 uM after 30 mins by competitive SPR analysis relative to control

{"columns": ["smiles-text", "study-system", "inhibition"],
 "data": [
  ["N=C(N/C(=N/O)c1nonc1N)c1ccccc1", "Cytohesin-3 (Mus musculus) (UniProt O08967)", "55%"],
  ["N=C(N/C(=N/O)c1nonc1N)N1CCCN=C1N", "Cytohesin-3 (Mus musculus) (UniProt O08967)", "67%"],
  ["N=C(N)NC(=N)N/C(=N/O)c1nonc1N", "Cytohesin-3 (Mus musculus) (UniProt O08967)", "56%"],
  ["N=C(N/C(=N/O)c1nonc1N)c1ccccc1N", "Cytohesin-3 (Mus musculus) (UniProt O08967)", "59%"]
]}

====

# study-system: RAC-alpha serine/threonine-protein kinase (Homo sapiens, UniProt P31749)
# Sequence (P31749 whole entry, the tested form may be a part): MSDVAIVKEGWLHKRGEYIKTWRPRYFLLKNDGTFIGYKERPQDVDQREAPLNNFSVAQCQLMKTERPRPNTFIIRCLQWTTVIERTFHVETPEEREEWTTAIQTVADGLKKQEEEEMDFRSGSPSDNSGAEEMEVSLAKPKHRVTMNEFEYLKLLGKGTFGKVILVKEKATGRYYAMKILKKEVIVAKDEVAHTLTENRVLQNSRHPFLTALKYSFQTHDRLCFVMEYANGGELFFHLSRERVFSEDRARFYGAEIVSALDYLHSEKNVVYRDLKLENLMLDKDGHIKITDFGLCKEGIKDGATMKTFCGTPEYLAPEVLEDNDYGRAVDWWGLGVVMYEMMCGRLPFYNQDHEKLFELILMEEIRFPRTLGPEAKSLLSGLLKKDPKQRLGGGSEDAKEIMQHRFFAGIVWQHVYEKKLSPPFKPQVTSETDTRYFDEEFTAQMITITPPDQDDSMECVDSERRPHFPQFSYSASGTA
# experiment-description: Antagonist activity at human AKT1-PH domain (1 to 121 residues) assessed as reduction of AKT1-PH interaction with PC/PE/PS/PI(3,4,5)P3 at 50 uM after 30 mins by competitive SPR analysis relative to control
A collection of molecules and their measured inhibition

{"columns": ["smiles-text", "reading-unit", "inhibition"],
 "data": [
  ["N=C(N/C(=N/O)c1nonc1N)c1ccccc1", "%", 54],
  ["N=C(N/C(=N/O)c1nonc1N)c1ccccc1Br", "%", 80],
  ["N=C(N/C(=N/O)c1nonc1N)N1CCCN=C1N", "%", 92],
  ["N=C(N)NC(=N)N/C(=N/O)c1nonc1N", "%", 95],
  ["N=C(N/C(=N/O)c1nonc1N)c1ccccc1N", "%", 74]
]}

====

A collection of molecules and their measured pIC50
# study-system: Tyrosine-protein kinase BTK (Homo sapiens)
# Sequence (Q06187 whole entry, the tested form may be a part): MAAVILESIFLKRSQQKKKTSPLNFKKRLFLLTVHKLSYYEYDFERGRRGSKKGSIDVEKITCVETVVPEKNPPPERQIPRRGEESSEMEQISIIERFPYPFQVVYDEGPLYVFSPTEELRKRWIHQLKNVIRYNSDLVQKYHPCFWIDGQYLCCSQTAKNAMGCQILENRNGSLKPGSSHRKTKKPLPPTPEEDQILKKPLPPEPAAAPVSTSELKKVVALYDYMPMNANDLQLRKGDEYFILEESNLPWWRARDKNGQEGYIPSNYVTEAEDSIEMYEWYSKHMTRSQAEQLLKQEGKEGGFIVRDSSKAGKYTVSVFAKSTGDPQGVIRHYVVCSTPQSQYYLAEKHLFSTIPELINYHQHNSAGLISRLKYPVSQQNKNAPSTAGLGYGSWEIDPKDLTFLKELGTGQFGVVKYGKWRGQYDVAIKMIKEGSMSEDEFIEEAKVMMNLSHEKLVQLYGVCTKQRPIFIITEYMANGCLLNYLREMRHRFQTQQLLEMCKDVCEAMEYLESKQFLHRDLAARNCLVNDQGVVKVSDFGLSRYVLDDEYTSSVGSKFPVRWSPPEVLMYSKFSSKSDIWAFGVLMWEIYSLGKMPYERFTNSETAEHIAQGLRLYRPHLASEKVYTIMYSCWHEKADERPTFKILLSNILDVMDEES
# experiment-description: Antagonist activity at human BTK-PH domain (2 to 170 residues) assessed as reduction in PI(3,4,5)P3/BTK-PH interaction after 30 mins by competitive SPR analysis
pIC50: −log10 of the molar value.

{"columns": ["smiles-text", "pIC50"],
 "data": [
  ["N=C(N)NC(=N)N/C(=N/O)c1nonc1N", 4.96],
  ["N=C(N/C(=N/O)c1nonc1N)c1ccccc1N", 5.50],
  ["N=C(N/C(=N/O)c1nonc1N)N1CCCN=C1N", 4.33]
]}

====

# study-system: RAC-alpha serine/threonine-protein kinase (Homo sapiens, UniProt P31749)
# experiment-description: Antagonist activity at human AKT1-PH domain (1 to 121 residues) assessed as reduction of AKT1-PH interaction with PC/PE/PS/PI(3,4,5)P3 after 30 mins by competitive SPR analysis
Values of IC50 strictly less than 7 µM map to Yes, and values of at least 7 µM map to No.

{"columns": ["smiles-text", "label-class"],
 "data": [
  ["N=C(N/C(=N/O)c1nonc1N)c1ccccc1Br", "No"],
  ["N=C(N)NC(=N)N/C(=N/O)c1nonc1N", "Yes"],
  ["N=C(N/C(=N/O)c1nonc1N)N1CCCN=C1N", "Yes"],
  ["N=C(N/C(=N/O)c1nonc1N)c1ccccc1N", "No"]
]}
